Observed IC50 values for cMET (Homo sapiens) are listed in what follows.
Please state the figure in nM; there is no need to write the unit.

See these solved cases before continuing.
• Cc1ccc(C(=O)Nc2ccc(Oc3ncnc(N)c3Cl)c(F)c2)c(=O)n1-c1ccc(F)cc1 = 14
• Nc1nccc(Oc2ccc(NC(=O)c3ccc(CO)n(-c4ccc(F)cc4)c3=O)cc2F)c1Cl = 3
• Cc1c(C(=O)Nc2ccc(Oc3ccnc(N)c3Cl)c(F)c2)c(=O)n(-c2ccccc2)n1C = 11

Fill in the blank: the reported IC50 of Cc1ccc(C(=O)Nc2ccc(Oc3cc(Cl)nn4ccnc34)c(F)c2)c(=O)n1-c1ccc(F)cc1 is ____.
8270

Then Cc1ccc(C(=O)Nc2ccc(-c3ccnc(-c4ccnc(N)n4)c3)c(F)c2)c(=O)n1-c1ccc(F)cc1 ?
1490

What about this molecule? Cc1ccc(C(=O)Nc2ccc(NC(=O)c3cc(Br)cnc3N)c(F)c2)c(=O)n1-c1ccc(F)cc1
1690

Now consider COc1ccn(-c2ccc(F)cc2)c(=O)c1C(=O)Nc1ccc(-c2ccnc(-c3ccnc(N)n3)c2)c(F)c1 .
4860

What do you get for Nc1nccc(Oc2ccc(NC(=O)c3cc(C4CC4)cn(-c4ccc(F)cc4)c3=O)cc2F)c1Cl ?
6

====

Here's a batch of compounds along with measured IC50 for RON (Homo sapiens, UniProt Q04912).
The response must be a number in nM with no trailing unit.

A selection of reference data follows.
- Cc1c(C(=O)Nc2ccc(Oc3ccnc(N)c3Cl)c(F)c2)c(=O)n(-c2ccccc2)n1C [Example 24]: 44
- Cc1c(C(=O)Nc2ccc(Oc3ccnc(N)c3Cl)c(F)c2)c(=O)n(-c2ccccc2)n1CC(C)(C)O [Example 29]: 82
- Nc1nccc(Oc2ccc(NC(=O)c3ccc(CO)n(-c4ccc(F)cc4)c3=O)cc2F)c1Cl [Example 26]: 3

Next, consider the following compound.
For Nc1nccc(Oc2ccc(NC(=O)c3ccc(C(F)(F)F)n(-c4ccc(F)cc4)c3=O)cc2F)c1Cl [Example 28] , what is its reported IC50?
8
